assay: yeast display, Sf9 membrane polyspecificity reagent, FACS + sequencing; frameworks hold sequencing errors
observation-type: polyreactivity (PSR sort gate)

Take a look at these entries with their results.
residue-string: QVQLVESGGGLVQAGGSLRLSCAASGSISHYAMGWYTQAPGTESELVAAISRRGGSTYYADSVKGRFTISRDNAKNTVYLQLNSLKPEDTAVYYCNAVRAGGYTEFNYWGQGTQVTVSS
observed: high polyreactivity
--
residue-string: QVHLVESGGGLVQAGGILRLSCAAYGSTFKSYAMGWYRLAPGKERELVAAISSSTGRTYYADSVKGRFTISLDYAKNTVYLQMNSMKPEDTAVYYCNAVHRYERDYCGQGTQVTVSS
observed: high polyreactivity
--
residue-string: QVQLVESGGGLVQAGGSLRLSCAASGFIFDYNTMGWYRQEPGKERELVADISGGGGRTYYADSVKGRFTISRDNAKNTVYLQMNSLKPEDTAVYYCAALGYYHHAWWISYDYWGQGTQVTVSS
observed: low polyreactivity
--
residue-string: QVQLVESGGGLVQAGGSLRLSCAASGSTFTYNTMGWYRQAPGKERELVAAINTTGNTYADSVKGRFTISRDNAKNTVYLQMNSLKPEDTAVYYCNTDYVPRRHDMDYWGQGTQVTVSS
observed: low polyreactivity

Now consider a different sequence.
[in] # return recorded polyreactivity (PSR sort gate) for input QVQLVESGGGLVQAGGSLRLSCAASGLIFYSYTMGWYRQAPGKERELVASITWTGGSTYYADSVKGRFTISRDNAKNTVYLQMNSLKPEDTAVYYCAVRVPSSIHIQLDYWGQGTQVTVSS
[out] high polyreactivity
